Cited source for all entries: patent US10907134B2

The molecules listed here are annotated with their Relative Luminescence Activity 6h-CTZ Int..
# testDetails: Substrate specificities of KAZ mutants (ZZ-fused, crude enzyme), 6h-CTZ
# Type: biochemical
# recordedConditions: 1 μg substrate, integrated for 60 seconds
# Method: The coelenterazine analogues used for substrate specificity studies were synthesized by the methods described in publications. Specifically, bis-coelenterazine was synthesized by the method described in Nakamura et al. (1997) Tetrahedron Lett. 38: 6405-6406; furimazine by the method described in Hall et al. (2012) ACS Chem. Biol. […]; and, 6h-coelenterazine, f-coelenterazine and 6h-f-coelenterazine by the methods described in Inouye et al (2013) Biochem. Biophys. Res. Commun. 437: 23-28. […]
Give the value as a plain number.

Example molecules with recorded Relative Luminescence Activity 6h-CTZ Int.:
[
  {
    "molecule": "KAZ-A54I-Y138I: KAZ mutant with two amino acid substitutions A54I and Y138I, SEQ ID NO: 14 (protein) FTLADFVGDWQQTAGYNQDQVLEQGGLSSLFQALGVSVTPIQKVVLSGENGLKIDIHVIIPYEGLSGFQMGLIEMIFKVVYPVDDHHFKIILHYGTLVIDGVTPNMIDYFGRPYPGIAVFDGKQITVTGTLWNGNKIIDERLINPDGSLLFRVTINGVTGWRLCENILA",
    "observed": 6.1
  },
  {
    "molecule": "KAZ-V44I-A54I: KAZ mutant with two amino acid substitutions V44I and A54I, SEQ ID NO: 10 (protein) FTLADFVGDWQQTAGYNQDQVLEQGGLSSLFQALGVSVTPIQKIVLSGENGLKIDIHVIIPYEGLSGFQMGLIEMIFKVVYPVDDHHFKIILHYGTLVIDGVTPNMIDYFGRPYPGIAVFDGKQITVTGTLWNGNKIYDERLINPDGSLLFRVTINGVTGWRLCENILA",
    "observed": 5.6
  }
]

q: Query (molecule): KAZ-V44I-A54I-Y138I: KAZ mutant with three amino acid substitutions V44I, A54I and Y138I, SEQ ID NO: 16 (protein) FTLADFVGDWQQTAGYNQDQVLEQGGLSSLFQALGVSVTPIQKIVLSGENGLKIDIHVIIPYEGLSGFQMGLIEMIFKVVYPVDDHHFKIILHYGTLVIDGVTPNMIDYFGRPYPGIAVFDGKQITVTGTLWNGNKIIDERLINPDGSLLFRVTINGVTGWRLCENILA ; field requested: Relative Luminescence Activity 6h-CTZ Int.
a: 11.1
